Ref: ChEMBL document CHEMBL4480391

Tested on: MGC-803
measurement-protocol: Cytotoxicity against human MGC803 cells after 72 hrs by MTT assay
Assay type: functional, cell-based
condition: MGC-803, 72 h
pIC50: −log10 of the molar value.
Outcome: t for pIC50 of at least 5; f for anything lower.

Please review the entries below; each comes with its answer.
molecule	discrete-label
CCCCCCC(c1cc(OC)c2c(c1OC)/C(=N/O)C=C/C2=N\O)S(=O)(=O)CCC(C)C (centres undefined)	f
CCCCCCCCCCC(SCC)c1cc(OC)c2c(c1OC)/C(=N/O)C=C/C2=N\O (centres undefined)	t
CCCCCCCCC(SC(=O)/C=C/c1ccccc1)c1cc(OC)c2c(c1OC)/C(=N/O)C=C/C2=N\O (centres undefined)	t
CCCCCCCCCCCCCCC(SCCC(C)C)c1cc(OC)c2c(c1OC)/C(=N/O)C=C/C2=N\O (centres undefined)	f
CCCCCCCCCCCCC(SCCC(C)C)c1cc(OC)c2c(c1OC)/C(=N/O)C=C/C2=N\O (centres undefined)	f

For this molecule, is measured pIC50 5 or higher? CCCCC(SC(=O)c1cc(OC)c(OC)c(OC)c1)c1cc(OC)c2c(c1OC)/C(=N/O)C=C/C2=N\O (centres undefined) f

For this molecule, is measured pIC50 5 or higher? CCCCCCCCCCCCCCC(c1cc(OC)c2c(c1OC)/C(=N/O)C=C/C2=N\O)S(=O)(=O)CCC(C)C (centres undefined) t

For this molecule, is measured pIC50 5 or higher? CCCCCCCCCC(SCCC(C)C)c1cc(OC)c2c(c1OC)/C(=N/O)C=C/C2=N\O (centres undefined) t

###

measurement-protocol: Selectivity index, ratio of IC50 for human HSF cells to IC50 for human HCT15 cells
Type: toxicity
condition: HSF cells versus HCT15 cells, read-out: Ratio IC50
readout-label: selectivity ratio

molecule	recorded-measurement
CCCCCCCCCCC(SCCC(C)C)c1cc(OC)c2c(c1OC)/C(=N/O)C=C/C2=N\O (centres undefined)	> 10.5
CCCCCCCCC(SCCC(C)C)c1cc(OC)c2c(c1OC)/C(=N/O)C=C/C2=N\O (centres undefined)	> 92.6
CCCCCCCCC(c1cc(OC)c2c(c1OC)/C(=N/O)C=C/C2=N\O)S(=O)(=O)CCC(C)C (centres undefined)	> 12.6

Dear colleague, I am looking for the recorded selectivity ratio of the following molecule: CCCCCCCCC(SCCCCCC)c1cc(OC)c2c(c1OC)/C(=N/O)C=C/C2=N\O (centres undefined) > 46.3

###

Test system: K562
measurement-protocol: Cytotoxicity against human K562 cells after 72 hrs by MTT assay
Format: functional, cell-based
condition: K562, 72 h
Listed here are compounds together with their documented pIC50.
pIC50 is defined as minus the log10 of a concentration measured in mol/L.

Dear colleague, I am looking for the recorded pIC50 of the following compound: CCCCCCCCCCC(SCC)c1cc(OC)c2c(c1OC)/C(=N/O)C=C/C2=N\O (configuration not stated) 5.98

Dear colleague, I am looking for the recorded pIC50 of the following compound: CCCCCCCCC(SC(=O)c1ccc(C(F)(F)F)cc1)c1cc(OC)c2c(c1OC)/C(=N/O)C=C/C2=N\O (configuration not stated) 5.35

Dear colleague, I am looking for the recorded pIC50 of the following compound: CCCCCCCCC(SCCC(C)C)c1cc(OC)c2c(c1OC)/C(=N/O)C=C/C2=N\O (configuration not stated) 6.12

Dear colleague, I am looking for the recorded pIC50 of the following compound: CCCCC(SC(=O)c1cc(OC)c(OC)c(OC)c1)c1cc(OC)c2c(c1OC)/C(=N/O)C=C/C2=N\O (configuration not stated) 5.20
